Every entry's value here was drawn from patent US8569327B2.

System: human colon cancer SW480 cells
Experimental details: Inhibitory action on the proliferation of SW480 cells
Assay type: cell-based
Measurement conditions: 48 hours, TetraColor ONE
The label depends only on SW480 proliferation inhibitory action IC50: T if it is at least 1 ng/mL, F if it is smaller.

Worked cases, answers included:
COc1cc2c3c(c4ccc(OC(=O)CCCCCCC(=O)Oc5ccc6c7c(c8cc(OC)c(OC)cc8c6c5)CN5CCC[C@H]5[C@H]7O)cc4c2cc1OC)[C@H](O)[C@@H]1CCCN1C3.Cl [Compound 24]    F
COc1cc2c3c(c4ccc(OC(=O)N(C)C)cc4c2cc1OC)[C@H](O)[C@@H]1CCCN1C3.Cl [Compound 21]    T
COc1cc2c3c(c4ccc(OC(=O)c5ccco5)cc4c2cc1OC)[C@H](O)[C@@H]1CCCN1C3.Cl [Compound 20]    F
CCCCC(=O)Oc1ccc2c3c(c4cc(OC)c(OC)cc4c2c1)CN1CCC[C@H]1C3.CS(=O)(=O)O [Compound 49]    F
COC(=O)Oc1ccc2c3c(c4cc(OC)c(OC)cc4c2c1)CN1CCC[C@H]1[C@H]3O.Cl [Compound 17]    F

Moving on to another molecule below.
Could you tell me if the measured SW480 proliferation inhibitory action IC50 of COC(=O)Oc1ccc2c3c(c4cc(OC)c(OC)cc4c2c1)CN1CCC[C@H]1C3.Cl [Compound 37] reaches 1 ng/mL or more? F
